target: porcine kidney aminopeptidase N (APN) (Sus scrofa)
Sequence (P15145 whole entry): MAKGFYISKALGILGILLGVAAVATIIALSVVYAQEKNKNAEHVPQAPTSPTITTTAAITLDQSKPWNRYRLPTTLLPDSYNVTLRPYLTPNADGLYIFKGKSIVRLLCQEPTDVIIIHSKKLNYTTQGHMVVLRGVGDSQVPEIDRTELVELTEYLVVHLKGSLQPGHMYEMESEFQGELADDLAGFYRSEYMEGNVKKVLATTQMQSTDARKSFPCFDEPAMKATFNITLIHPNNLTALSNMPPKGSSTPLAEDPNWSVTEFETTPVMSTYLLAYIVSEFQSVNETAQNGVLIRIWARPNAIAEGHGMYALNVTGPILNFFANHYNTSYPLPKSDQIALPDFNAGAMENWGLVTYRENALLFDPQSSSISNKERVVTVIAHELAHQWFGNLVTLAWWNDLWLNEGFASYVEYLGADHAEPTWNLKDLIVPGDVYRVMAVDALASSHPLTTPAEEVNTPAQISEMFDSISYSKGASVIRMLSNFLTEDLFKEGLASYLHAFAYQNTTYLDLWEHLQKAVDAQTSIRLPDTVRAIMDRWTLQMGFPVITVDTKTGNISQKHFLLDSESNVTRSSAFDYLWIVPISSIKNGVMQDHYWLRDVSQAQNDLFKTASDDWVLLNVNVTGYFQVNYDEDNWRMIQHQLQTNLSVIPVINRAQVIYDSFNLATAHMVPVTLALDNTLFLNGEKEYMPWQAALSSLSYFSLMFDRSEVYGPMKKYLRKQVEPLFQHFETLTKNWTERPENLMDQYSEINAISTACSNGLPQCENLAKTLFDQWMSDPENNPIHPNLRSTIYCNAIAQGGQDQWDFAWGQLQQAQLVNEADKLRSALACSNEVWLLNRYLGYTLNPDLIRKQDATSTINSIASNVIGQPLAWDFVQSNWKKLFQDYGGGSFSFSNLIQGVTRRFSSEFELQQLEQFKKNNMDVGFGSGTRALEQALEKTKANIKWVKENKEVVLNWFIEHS
So basically: is IC50 under 2 µM? Then 1 (yes). Not under? Then 0 (no).

Below are worked cases with known answers.
{"columns": ["compound", "label.value"],
 "data": [
  ["CC(=O)N1N=C(c2ccccc2C)CC1c1ccccc1OCC(=O)NO (stereo not shown) [Compound 14k]", "1 (yes)"],
  ["CC(=O)N1N=C(c2ccccc2I)CC1c1cccc(Br)c1OCC(=O)NO (stereo not shown) [Compound 14q]", "0 (no)"],
  ["NC(=O)N1N=C(c2ccccc2I)CC1c1ccccc1OCC(=O)NO (stereo not shown) [Compound 14j]", "1 (yes)"],
  ["CC(=O)N1N=C(c2ccccc2I)CC1c1ccc(Br)cc1OCC(=O)NO (stereo not shown) [Compound 14s]", "0 (no)"],
  ["CC(=O)N1N=C(c2ccccc2)CC1c1ccccc1OCC(=O)NO (stereo not shown) [Compound 13a, reference compound]", "1 (yes)"]
]}

Query: In plain terms, does CC(=O)N1N=C(c2ccccc2OCc2ccccc2Br)CC1c1ccccc1OCC(=O)NO (stereo not shown) [Compound 14cc] come in under 2 µM for IC50?
Reply: 1 (yes)

Query: // next record NC(=O)N1N=C(c2ccccc2I)CC1c1cccc(Br)c1OCC(=O)NO (stereo not shown) [Compound 14r]
Reply: 0 (no)
